All figures here come from paper PMC9971447.

System: T47D
Experiment: SRB antiproliferation assay, T47D breast cancer cells
Assay type: cell-based
Conditions: read-out: Cytotoxicity (as of %Control) IC50 value, T47D; SRB, 72 h incubations, mean ± SD, n = 3
List of IC50 values.

# example entries with known answers
COCc1c(C(C)C)nc(C(C)C)c(/C=C/[C@@H](O)C[C@@H](O)CC(=O)O)c1-c1ccc(F)cc1 | < 50 µM
O=C(O)C[C@H](O)C[C@H](O)/C=C/c1c(C2CC2)nc2ccccc2c1-c1ccc(F)cc1 | > 50 µM

// moving on: another record for IC50
Reported IC50, compound CC(C)n1c(/C=C/C(O)CC(O)CC(=O)O)c(-c2ccc(F)cc2)c2ccccc21 (stereo not drawn) : ____
> 50 µM
